# target.desc: P2X2/P2X3 heterotrimeric receptor (Homo sapiens, UniProt P56373+Q9UBL9)
# Sequence (Q9UBL9 whole entry): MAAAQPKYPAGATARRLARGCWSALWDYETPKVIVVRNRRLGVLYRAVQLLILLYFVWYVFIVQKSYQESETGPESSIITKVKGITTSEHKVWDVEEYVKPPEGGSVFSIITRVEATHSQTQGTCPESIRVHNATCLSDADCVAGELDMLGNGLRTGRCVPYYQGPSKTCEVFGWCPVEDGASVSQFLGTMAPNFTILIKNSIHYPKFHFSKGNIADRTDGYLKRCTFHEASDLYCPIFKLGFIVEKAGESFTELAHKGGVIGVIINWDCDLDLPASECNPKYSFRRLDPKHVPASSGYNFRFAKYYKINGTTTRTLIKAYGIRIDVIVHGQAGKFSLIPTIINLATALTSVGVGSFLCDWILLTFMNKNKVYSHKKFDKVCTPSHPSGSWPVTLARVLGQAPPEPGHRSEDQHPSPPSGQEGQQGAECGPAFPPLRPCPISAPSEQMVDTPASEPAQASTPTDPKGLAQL
# Sequence (P56373 whole entry): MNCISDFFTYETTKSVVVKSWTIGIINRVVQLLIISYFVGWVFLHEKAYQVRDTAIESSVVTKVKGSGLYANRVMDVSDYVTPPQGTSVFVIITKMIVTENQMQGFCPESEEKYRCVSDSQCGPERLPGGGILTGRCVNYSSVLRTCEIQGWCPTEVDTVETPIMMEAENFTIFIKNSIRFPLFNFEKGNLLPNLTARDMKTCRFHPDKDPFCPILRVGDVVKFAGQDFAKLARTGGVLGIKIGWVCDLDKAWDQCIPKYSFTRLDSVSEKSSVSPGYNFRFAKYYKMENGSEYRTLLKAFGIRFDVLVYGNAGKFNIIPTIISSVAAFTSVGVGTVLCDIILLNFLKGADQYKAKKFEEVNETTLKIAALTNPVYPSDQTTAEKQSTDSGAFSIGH
# assay.protocol: […] activity at human P2X2R/P2X3R expressing CHO cells assessed as reduction in intracellular Ca2+ influx pretreated with Fluo-4 for 1 hr followed by compound addition and further incubated for 30 mins in presence of ATP by multimode plate reader analysis
recorded.metric: EC50 (nM)
Quick note: give the figure in nM, leave out the unit.

**Q:** Find the recorded EC50 belonging to Nc1ncnc2c1ncn2[C@@H]1O[C@H](COP(=O)(O)OP(=O)(O)OP(=O)(O)O)[C@@H](OC(=O)c2ccccc2)[C@H]1OC(=O)c1ccccc1 and report it.
**A:** 1200

---

# target.desc: P2X purinoceptor 1 (Homo sapiens)
# Sequence (P51575 whole entry): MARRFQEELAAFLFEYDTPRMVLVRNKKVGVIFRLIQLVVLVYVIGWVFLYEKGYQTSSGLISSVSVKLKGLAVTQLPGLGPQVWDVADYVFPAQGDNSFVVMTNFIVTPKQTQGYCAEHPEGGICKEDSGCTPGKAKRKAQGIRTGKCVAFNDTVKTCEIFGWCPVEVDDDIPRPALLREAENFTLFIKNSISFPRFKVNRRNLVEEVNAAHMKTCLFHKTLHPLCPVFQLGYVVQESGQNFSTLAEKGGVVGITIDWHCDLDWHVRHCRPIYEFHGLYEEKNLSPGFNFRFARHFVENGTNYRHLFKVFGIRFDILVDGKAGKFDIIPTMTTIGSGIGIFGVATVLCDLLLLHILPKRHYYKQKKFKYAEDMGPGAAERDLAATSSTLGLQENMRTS
# assay.protocol: […] activity at human P2X1R expressing CHO cells assessed as reduction in intracellular Ca2+ influx pretreated with Fluo-4 for 1 hr followed by compound addition and further incubated for 30 mins in presence of ATP by multimode plate reader analysis
# Assay type: cell-based
recorded.metric: IC50 (µM)

a. O=P(O)(O)OP(=O)(O)OP(=O)(O)OC[C@H]1O[C@@H](n2cnc3c(S)ncnc32)[C@H](O)[C@@H]1O
b. O=P(O)(O)OP(=O)(O)OP(=O)(O)OC[C@H]1O[C@@H](n2cnc3c(Cl)ncnc32)[C@H](O)[C@@H]1O
c. Nc1ncnc2c1ncn2[C@@H]1O[C@H](COP(=O)(O)OP(=O)(O)OP(=O)(O)O)[C@@H](O)[C@H]1N
**Q:** Ascending by IC50, please: list the compounds accordingly. // rank by listing labels in the order requested
**A:** b, a, c
(b: 0.00355 µM, a: 1.51 µM, c: 6.46 µM)
